System: HCC1954
PROTOCOL_SUMMARY: -log10 GI50 (growth inhibition 50%) (-log10(M)); higher = more potent growth inhibition
ASSAY_READOUT: -log10 GI50

MOLECULE: CO[C@H]1C[C@@H]2CC[C@@H](C)[C@@](O)(O2)C(=O)C(=O)N2CCCC[C@H]2C(=O)O[C@H]([C@H](C)C[C@@H]2CC[C@@H](O)[C@H](OC)C2)CC(=O)[C@H](C)/C=C(\C)[C@@H](O)[C@@H](OC)C(=O)[C@H](C)C[C@H](C)/C=C/C=C/C=C/1C
-log10 GI50: 8.45
--
MOLECULE: COc1ccc(-c2cc3c(C)nc(N)nc3n([C@H]3CC[C@H](OCCO)CC3)c2=O)cn1
-log10 GI50: 6.88
--
MOLECULE: CC[C@H](CO)Nc1nc(NCc2ccccc2O)c2ncn(C(C)C)c2n1
-log10 GI50: 4.95
--
MOLECULE: COc1cccc2c1C(=O)c1c(O)c3c(c(O)c1C2=O)C[C@@](O)(C(=O)CO)C[C@@H]3O[C@H]1C[C@H](N)[C@H](O)[C@H](C)O1
-log10 GI50: 6.74
--
MOLECULE: O=C1c2ccccc2-[n+]2ccc3c([nH]c4ccccc43)c21
-log10 GI50: 6.57
--
MOLECULE: CN(C)C/C=C/C(=O)Nc1cc2c(Nc3ccc(F)c(Cl)c3)ncnc2cc1O[C@H]1CCOC1
-log10 GI50: 6.91
--
MOLECULE: CN(Cc1cnc2nc(N)nc(N)c2n1)c1ccc(C(=O)N[C@@H](CCC(=O)O)C(=O)O)cc1 [Methotrexate]
-log10 GI50: 8.07
--
MOLECULE: C/C(=C\c1csc(C)n1)[C@@H]1C[C@@H]2O[C@]2(C)CCC[C@H](C)[C@H](O)[C@@H](C)C(=O)C(C)(C)[C@@H](O)CC(=O)N1 [Ixabepilone]
-log10 GI50: 8.71
--
MOLECULE: C=CCNC1=C2C[C@@H](C)C[C@H](OC)[C@H](O)[C@@H](C)/C=C(\C)[C@H](OC(N)=O)[C@@H](OC)/C=C\C=C(/C)C(=O)NC(=CC1=O)C2=O
-log10 GI50: 7.5
--
MOLECULE: N.N.[Cl][Pt][Cl] [Cisplatin]
-log10 GI50: 5.29
--
MOLECULE: CC[C@@]1(O)C(=O)OCc2c1cc1n(c2=O)Cc2cc3c(CN(C)C)c(O)ccc3nc2-1
-log10 GI50: 6.55
--
MOLECULE: C[C@]12O[C@H](C[C@]1(O)CO)n1c3ccccc3c3c4c(c5c6ccccc6n2c5c31)CNC4=O
-log10 GI50: 5.31

====

Tested on: MCF10F
PROTOCOL_SUMMARY: -log10 GI50 (growth inhibition 50%) (-log10(M)); higher = more potent growth inhibition
ASSAY_READOUT: -log10 GI50
Please state the value as a number alone, without comment.

COMPOUND: Cc1cc(Nc2cc(N3CCN(C)CC3)nc(Sc3ccc(NC(=O)C4CC4)cc3)n2)n[nH]1 [VX-680]
-log10 GI50: 4.99

COMPOUND: CC(=O)NCC(=O)N1[C@@H]2CC[C@H]1c1ccc(Nc3ncc(C(F)(F)F)c(NC4CCC4)n3)cc12
-log10 GI50: 6.28

COMPOUND: CS(=O)(=O)CCNCc1ccc(-c2ccc3ncnc(Nc4ccc(OCc5cccc(F)c5)c(Cl)c4)c3c2)o1 [Lapatinib]
-log10 GI50: 4.94

COMPOUND: COc1cccc2c1C(=O)c1c(O)c3c(c(O)c1C2=O)C[C@@](O)(C(=O)CO)C[C@@H]3O[C@H]1C[C@H](N)[C@@H](O)[C@H](C)O1 [Epirubicin]
-log10 GI50: 6.32

COMPOUND: CCCCCN(C)CCC(O)(P(=O)(O)O)P(=O)(O)O [Ibandronate sodium]
-log10 GI50: 3.81

Moving on to another compound below.
Ask | GET /values?readout=-log10 GI50&item= `COc1ncc(-c2ccc3nccc(-c4ccnnc4)c3c2)cc1NS(=O)(=O)c1ccc(F)cc1F`
Reply | 8.67
